# experimental.target: FAD-linked sulfhydryl oxidase ALR (Homo sapiens, UniProt P55789)
# Sequence (P55789 whole entry): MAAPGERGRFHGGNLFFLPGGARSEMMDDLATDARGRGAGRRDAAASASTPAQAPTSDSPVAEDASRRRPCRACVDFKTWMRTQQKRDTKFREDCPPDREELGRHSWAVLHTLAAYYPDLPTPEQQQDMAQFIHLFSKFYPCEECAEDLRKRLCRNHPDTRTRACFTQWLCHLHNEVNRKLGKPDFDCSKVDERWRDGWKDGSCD
# experimental.protocol: ALR-catalysed DTT oxidation blockers – biochemical, H2O2 detection, luminescence, cherry-pick, dose response (AID 493248)
The source made the active and inactive calls.
property.measured: AC50

In [3]: df
Out[3]:
                            smiles_notation        data_value
0  O=[N+]([O-])c1ccccc1/C=C/C=N/n1c(S)nnc1-c1ccccc1F  1890 nM (active)
1         Cc1ccc(CSC2=NCCN2C(=O)c2ccco2)cc1  2850 nM (active)
2         Cc1nc(-c2ccc(NC(=O)CC(C)C)cc2)cs1  2380 nM (active)
3  O=C(c1cc(O)c(O)c([N+](=O)[O-])c1)c1ccccc1F  3200 nM (active)
4       COc1cc(/C=N/Nc2ccc(Cl)nn2)cc(OC)c1O     5 nM (active)

// query Query (compound): Nc1n[nH]c(N)c1N=Nc1ccc(F)cc1 ; field requested: AC50
// result 2290 nM (active)

// query Look up AC50: Cc1cc(Nc2[nH]nc(N)c2C#N)ccc1F
// result 2220 nM (active)

// query Could you tell me which AC50 is on file for Nc1ccc(-c2ccc(N)c(C(=O)O)c2)cc1C(=O)O ?
// result 2380 nM (active)

// query I'd like to know its AC50. The compound in question is O=C(NN/C=C1\C(=O)N(Cc2ccccc2)C(=O)c2ccccc21)c1cccnc1
// result 3350 nM (active)

* * *

Below is a list of entries, each paired with its recorded IC50 value.
# experimental.target: Sentrin-specific protease 8 (Homo sapiens, UniProt Q96LD8);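 also: luminescence read-out of SENP8 inhibition, dose-response confirmation following an ultra-high-throughput screen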
# Sequence (Q96LD8 whole entry): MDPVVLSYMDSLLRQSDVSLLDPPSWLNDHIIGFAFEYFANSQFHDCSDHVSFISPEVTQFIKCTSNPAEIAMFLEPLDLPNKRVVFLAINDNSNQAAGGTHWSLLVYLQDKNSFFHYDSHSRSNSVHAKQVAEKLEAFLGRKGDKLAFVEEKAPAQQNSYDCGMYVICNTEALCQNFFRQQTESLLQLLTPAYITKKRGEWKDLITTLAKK
# Format: functional
The source made the active and inactive calls.

                        smiles_notation  property_measured           data_value
0          O=Nc1ccc(NOC(=O)c2ccccc2)cc1               IC50  > 100 µM (inactive)
1  COc1cccc(/N=C/c2c(O)oc3ccccc3c2=O)c1               IC50  > 100 µM (inactive)

// query Form field: IC50 recorded for COc1ccc(S(=O)(=O)N2CCOCC2)cc1NC(=O)COC(=O)c1ccc([N+](=O)[O-])s1 with Sentrin-specific protease 8 (Homo sapiens, UniProt Q96LD8) (enter value)
// result 6.06 µM (active)

// query Given the entry COc1ccc(/C=C2\CCc3ccccc3C2=O)cc1OC , what IC50 was observed with Sentrin-specific protease 8 (Homo sapiens, UniProt Q96LD8)?
// result 22.1 µM (active)

// query Lab note: need IC50 with Sentrin-specific protease 8 (Homo sapiens, UniProt Q96LD8) for entry O=C(Nc1nc2c(s1)CCCC2)c1ccc(Br)s1 , please look it up.
// result 25.4 µM (active)

// query Quick check: IC50 on Sentrin-specific protease 8 (Homo sapiens, UniProt Q96LD8), item O=[N+]([O-])c1ccc(N/N=C/c2ccccc2O)cc1 ?
// result 55.1 µM (active)

* * *

# experimental.target: DNA dC->dU-editing enzyme APOBEC-3A (Homo sapiens)
# Sequence (P31941 whole entry): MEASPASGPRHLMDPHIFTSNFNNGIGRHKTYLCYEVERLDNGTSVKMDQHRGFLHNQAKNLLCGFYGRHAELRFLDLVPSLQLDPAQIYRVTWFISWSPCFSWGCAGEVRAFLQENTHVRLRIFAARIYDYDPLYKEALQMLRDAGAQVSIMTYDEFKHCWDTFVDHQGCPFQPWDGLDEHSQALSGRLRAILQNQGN
# experimental.protocol: Dose Response confirmation of small molecule APOBEC3A DNA Deaminase Inhibitors via a fluorescence-based single-stranded DNA deaminase assay. [Related pubchem assays (depositor defined):AID493011, AID493024]
# Format: functional
Calls of active or inactive are those of the source.
property.measured: IC50

>>> df
                                   molecule        data_value
0  CC(=O)c1cccc(OC(=O)c2ccc3c(=O)n4c(nc3c2)CCC4)c1  6.27 µM (active)
1  C[N+]1(C)[C@@H]2CC[C@H]1C[C@@H](OC(=O)C(CO)c1ccccc1)C2 (stereo partly specified)  2.23 µM (active)
2  CCC(Oc1ccccc1OC)C(=O)Nc1ccc2c(c1)OCCO2 (stereo unspecified)  6.09 µM (active)
3          C[n+]1ccccc1/C=C1\Sc2ccccc2N1CCO  1.08 µM (active)
4  CCn1c(SCC(=O)N2CCN(c3ccc(Cl)cc3)CC2)nc2ccccc2c1=O  2.83 µM (active)

Would you kindly look at the next entry?
// query I would be grateful if you could share the reported IC50 for C=CCn1c(NC(=O)c2ccc(C)cc2)c(C#N)sc1=N .
// result 3.47 µM (active)
